Experiment: Confirmatory growth inhibition assay, mycobacterium tuberculosis h37rv, with cytotoxicity (AID 1332);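 on IC50: bacteria incubated 7 days before adding Alamar blue readout reagent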
Details: M. tuberculosis H37Rv growth inhibition; measured here: IC50 H37Rv replicates
Hit rate of the full screen: of about 1,100 compounds, about 170 (15%) were called active. A selection follows.
The molecules listed here are annotated with their IC50.

A selection of reference data follows.
{"columns": ["molecule", "observed property", "reported measurement"],
 "data": [
  ["CN(C)CCC=C1c2ccccc2CCc2ccccc21", "IC50", "16.2 µg/mL"],
  ["CC(C)n1c(/C=C/[C@H](O)C[C@H](O)CC(=O)O)c(-c2ccc(F)cc2)c2ccccc21", "IC50", "> 20 µg/mL"],
  ["CN1CCC[C@@H]1CCO[C@](C)(c1ccccc1)c1ccc(Cl)cc1", "IC50", "10.9 µg/mL"],
  ["CN(C)CC/C=C1\\c2ccccc2CSc2ccccc21", "IC50", "> 20 µg/mL"]
]}

According to the records, this molecule CN1CCCCC1CCN1c2ccccc2Sc2ccc(S(C)=O)cc21 (stereo not drawn) displays IC50 of > 20 µg/mL

Measured IC50, Cc1onc(-c2c(F)cccc2Cl)c1C(=O)N[C@@H]1C(=O)N2C(C(=O)O)C(C)(C)S[C@H]12 (stereo partly drawn) : > 20 µg/mL

In plain terms, C=C(C)[C@@H]1C2C(=O)O[C@H]1[C@H]1OC(=O)[C@@]34OC3C[C@]2(O)[C@@]14C (stereo partly drawn) has a documented IC50 of > 20 µg/mL

Entry O=C(O)COCCN1CCN(C(c2ccccc2)c2ccc(Cl)cc2)CC1 (stereo not drawn) — recorded IC50 = > 20 µg/mL

Value of measured IC50 for the entry COc1ccc2c3c([nH]c2c1)[C@H]1C[C@H]2[C@H](C[C@@H](O)[C@H](OC)[C@H]2C(=O)O)CN1CC3 : > 20 µg/mL

The reported value for CCOC(=O)Oc1c(OC)cc(C(=O)O[C@@H]2C[C@@H]3CN4CCc5c([nH]c6cc(OC)ccc56)[C@H]4C[C@@H]3[C@H](C(=O)OC)[C@H]2OC)cc1OC in terms of IC50 is 7.94 µg/mL

----------
Experiment: Confirmatory growth inhibition assay, mycobacterium tuberculosis h37rv, with cytotoxicity (AID 1332);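 on CC50: Vero cells exposed to compounds for 72 hours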
Details: M. tuberculosis H37Rv growth inhibition; measured here: Vero cell cytotoxicity
The whole screen tested about 1,100 compounds, of which about 170 (15%) were called active. A selection follows.
Each entry below lists one item and its recorded CC50 value.

{"columns": ["molecule", "reported measurement"],
 "data": [
  ["OCCN1CCN(CC/C=C2/c3ccccc3Sc3ccc(Cl)cc32)CC1", "> 6 µg/mL"],
  ["CC[C@H]1CN2CCc3cc(OC)c(OC)cc3[C@@H]2C[C@@H]1C[C@H]1NCCc2cc(O)c(OC)cc21", "< 0.023 µg/mL"],
  ["CN(C)CCC=C1c2ccccc2CCc2ccccc21", "> 6 µg/mL"],
  ["COC(=O)[C@H]1[C@H]2C[C@@H]3c4[nH]c5cc(OC)ccc5c4CCN3C[C@H]2C[C@@H](OC(=O)/C=C/c2cc(OC)c(OC)c(OC)c2)[C@@H]1OC", "> 6 µg/mL"],
  ["COc1cc(/C=C/C(=O)N2CCC=CC2=O)cc(OC)c1OC", "1.53 µg/mL"]
]}

So for C[C@H]1CCC2(NC1)O[C@H]1C[C@H]3[C@@H]4CC[C@H]5C[C@@H](O[C@@H]6O[C@H](CO)[C@H](O[C@@H]7O[C@H](CO)[C@@H](O)[C@H](O[C@@H]8OC[C@@H](O)[C@H](O)[C@H]8O)[C@H]7O[C@@H]7O[C@H](CO)[C@@H](O)[C@H](O)[C@H]7O)[C@H](O)[C@H]6O)CC[C@]5(C)[C@H]4CC[C@]3(C)[C@H]1[C@@H]2C (stereo partly specified) , the logged CC50 turned out to be 3.98 µg/mL

CC50 reported for this molecule CC(CN(C)C)CN1c2ccccc2Sc2ccccc21 (stereo unspecified) : > 6 µg/mL

Data point: CN1CCCN(C(c2ccccc2)c2ccc(Cl)cc2)CC1 (stereo unspecified) ; CC50 = > 6 µg/mL

Form field CC50, entry CN1CCC[C@@H]1CCO[C@](C)(c1ccccc1)c1ccc(Cl)cc1 : > 6 µg/mL

The reported value for CN1CCC(=C2c3ccccc3CCc3sccc32)CC1 in terms of CC50 is > 6 µg/mL

Value of measured CC50 for the entry O[C@@H]1[C@@H](O)C=C2CCN3Cc4cc5c(cc4[C@H]1C23)OCO5 (stereo partly specified) : 0.806 µg/mL

The value of CC50 measured for the molecule CCCCc1ccc2nc(NC(=O)OC)[nH]c2c1 turned out to be 0.043 µg/mL

Entry CCc1nc(N)nc(N)c1-c1ccc(Cl)cc1 — recorded CC50 = 1.26 µg/mL
